test system: UACC-62 melanoma; experiment: NCI-60 one-dose screen, 48 h; conditions: 10 µM unless noted
The panel holds about 83,000 compounds, 20% with a hit somewhere; the sample as a whole holds those more often. Active and inactive are the calls of the source. Rule for the calls: active = growth percent below 10; inactive = the rest.
Respond only with the outcome that fits, drawn from active, inactive

// query Tell me the assay call for `CCOC(=O)c1c(/N=C2\SC(=O)/C(=C\C(=O)OC)N2NC)sc2c1CCN(C(=O)OCC)C2` please.
// result inactive

// query Could you check what this test reported for `COc1cccc(CC(C)=C(c2ccc(OCCN3CCCCC3)cc2)c2ccc(OCCN3CCCCC3)cc2)c1` ?
// result active

// query Any idea what this test logged for `O=C(NNC(=O)N1c2ccccc2C=Cc2ccccc21)c1ccc2ccccc2c1` ?
// result inactive

// query Hi, do you know how `C=C[C@@H]1C[C@H](O)Cc2ccccc2N1` came out in this test?
// result inactive

* * *

system: HT29 colon; experiment: NCI-60 one-dose screen, 48 h (100 = growth as untreated, 0 = no growth, -100 = all killed); conditions: 10 µM unless noted
About 83,000 compounds went through this panel and 20% of them were active in at least one assay; those are over-represented in the sample as a whole.
assay.readout: growth (%)
Response body: numeric value in %, unit text excluded.

// query // growth lookup, key: `N=C(N)c1ccc(-c2ccc(-c3ccc4ccccc4c3)s2)cc1`
// result -42

// query Recorded growth of `Nc1nc(Nc2cc(Cl)cc(Cl)c2)nn1S(=O)(=O)c1ccc2ccccc2c1` , please.
// result 39.8

// query What does the data say about its growth? Entry: `COc1cc(-c2nc(N=Nc3c(O)[nH]c4ccc(Br)cc34)[nH]c(=O)c2C#N)cc(OC)c1OC`
// result 106

* * *

system: DU-145 prostate; assay: NCI-60 one-dose screen, 48 h (100 = growth as untreated, 0 = no growth, -100 = all killed); details: 10 µM unless noted
Compounds without any hit were thinned out: in the full panel of roughly 83,000, 20% have a hit.
So I've got a bunch of compounds here, and I need their growth values.
Write down the numeric answer in % and omit the unit.

// query Tell me reported growth for `COc1ccc(N=Cc2c(O)ccc3c2oc2cc(Cl)c(O)c(Cl)c23)cc1` , tested with DU-145 prostate.
// result 125

// query Please state recorded growth (tested on DU-145 prostate) of `O=C1CS/C(=N\Nc2cc(=O)[nH]c3ccccc23)N1c1ccccc1`
// result 111

// query Give DU-145 prostate growth for C/C=C/C1=CN2C(=O)c3cc(OC4OC(C)C(NC)C(C)(O)C4O)c(C)cc3N=C[C@@H]2C1 (some centres undefined)
// result -18.6

// query Request - read-out growth | tested on DU-145 prostate | compound `CC(=O)Nc1ccc(S(=O)(=O)n2ccc(-c3ccc4c(c3)CCC(C)(C)O4)n2)cc1`
// result 83.5

* * *

tested on: LOX IMVI melanoma; assay: NCI-60 one-dose screen, 48 h (100 = growth as untreated, 0 = no growth, -100 = all killed); conditions: 10 µM unless noted
About 83,000 compounds went through this panel and 20% of them were active in at least one assay; those are over-represented in the sample as a whole.
assay.readout: growth (%)
Write down the numeric answer in % and omit the unit.

// query Short answer please: growth, LOX IMVI melanoma, entry `Cn1ccc(=O)c(S(N)(=O)=O)c1`
// result 91.9

// query Request body: readout growth, system LOX IMVI melanoma, query CCC(C)/C(=C\C#N)NCCCN/C(=C/C#N)C(C)CC (stereo not drawn) . Return the value.
// result 93.7

// query Please provide the recorded growth for O=C1Nc2ccc(Cl)cc2C12Nc1cc(Cl)ccc1S2 (stereo not drawn) , tested on LOX IMVI melanoma.
// result 77.9

// query Give growth (LOX IMVI melanoma) of the following compound: `CCN(CC)CCOc1ccc(Cl)c(C)c1`
// result 101

// query Give growth (LOX IMVI melanoma) of the following compound: `COc1ccc(-c2c(N)n[nH]c2-c2cc(OC)c(OC)c(OC)c2)cc1`
// result 43.2

// query Any idea what growth came out for `O=C(/C=C/c1c[nH]c2ccccc12)c1ccc(O)c(CN2CCN(c3ccc(F)cc3)CC2)c1` on LOX IMVI melanoma?
// result 96.1

// query Record `S=c1[nH]nc(-c2cc3ccc2CCc2ccc(cc2)CC3)n1C1CC1` : what is its growth with LOX IMVI melanoma?
// result 95

// query Request body: readout growth, system LOX IMVI melanoma, query `Cc1cc(N/N=C/c2nc(-c3ccc(Br)cc3)oc2C)c2cc(Cl)ccc2n1` . Return the value.
// result 20.8

// query Find the measured growth: item `CN(CCCCN(C[C@H]1Cc2ncccc2CN1)[C@H]1CCCc2cccnc21)C1CCC(F)(F)CC1` , target or system LOX IMVI melanoma.
// result 93.3

// query Entry `O=C1CS/C(=N\Nc2cc(=O)[nH]c3ccccc23)N1c1ccccc1` , system LOX IMVI melanoma: what growth was measured?
// result 88.2

// query Request - read-out growth | tested on LOX IMVI melanoma | compound `O=C(Nc1ccncc1)C(=O)c1cn(S(=O)(=O)c2ccccc2F)c2ccccc12`
// result 37

// query Provide the documented growth with LOX IMVI melanoma as the system for `N[C@H]1CN(C(=O)c2cc3cc(Br)c(F)c(F)c3[nH]2)C[C@@H]1O`
// result 89.6

// query Item `NNc1cccc(/C=C/c2ccccc2)cc1=O` with LOX IMVI melanoma - growth?
// result 33.4
